Each recorded value in this set is attributed to patent US5190922A.

// Ki lookup, one value per entry
- Target under test: C5a Receptor (Homo sapiens, UniProt P21730)
- Construct: 2.5-25 μg/mL of purified PMNL membrane fragments; from tissue; host or cells: polymorphonuclear leukocyte (PMNL) membrane fragments
- Sequence (P21730 1-350): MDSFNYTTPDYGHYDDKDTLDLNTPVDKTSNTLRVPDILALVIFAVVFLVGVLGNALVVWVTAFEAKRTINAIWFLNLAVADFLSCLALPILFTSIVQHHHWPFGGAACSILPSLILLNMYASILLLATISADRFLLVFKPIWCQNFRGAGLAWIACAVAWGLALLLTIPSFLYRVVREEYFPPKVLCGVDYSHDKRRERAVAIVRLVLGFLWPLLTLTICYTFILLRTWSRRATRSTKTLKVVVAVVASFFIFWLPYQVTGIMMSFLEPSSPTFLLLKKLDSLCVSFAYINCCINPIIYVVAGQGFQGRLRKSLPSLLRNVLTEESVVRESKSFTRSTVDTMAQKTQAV
- Assay summary: Anaphylatoxin receptor binding Ki determination (inhibition of 125I-C5a binding to PMNL membrane fragments)
- Experimental parameters: 0.03-1 nM 125I-C5a, 2.5-25 μg/mL purified PMNL membrane fragments, filtration; read-out: Ki (In vitro C5a Receptor Binding Potency)
- Protocol: Specific inhibition of C5 a binding activity of representative compounds of the present invention was measured using 0.03-1 nM ^125 I-C5 a with 2.5-25 μg/mL of purified PMNL membrane fragments (Borregaard, N.; Heiple, J. M.; Simons, E. R.; and Clark, R. A. J. Cell. Biol. 1983, 97, 52-61.). Free and membrane-bound ligand were separated by filtration.
Non-standard residues stand in square brackets, D forms with d. Residues, ends and D or L forms follow the SMILES beside them. *: point of attachment. Butanoyl(3S-Ph) = C[C@@H](CC(=O)*)c1ccccc1; NHCH2(2-pyridyl) = c1ccc(CN*)nc1; NMeF = CN[C@@H](Cc1ccccc1)C(=O)O; X11 = O=[N+]([O-])c1cccc(CN*)c1; Cha = N[C@@H](CC1CCCCC1)C(=O)O; dCha = N[C@H](CC1CCCCC1)C(=O)O; X7 = O=C(C(CO)c1ccccc1)*; X4 = NCCCN(CCc1ccccc1)*; NH(CH2)5NH2 = NCCCCCN*; X3 = N=C(N)NCCCN*

Molecule	Target under test	Ki / µM
CN[C@@H](Cc1ccccc1)C(=O)N[C@@H](CCCCN)C(=O)N1CCC[C@H]1C(=O)N[C@H](CCCNC(=N)N)C(=O)N[C@@H](Cc1ccccc1)C(=O)NCc1ccccn1 [Example 199] (H-[NMeF]KP[dR]F-{NHCH2(2-pyridyl)})	C5a Receptor (Homo sapiens, UniProt P21730)	8.4
CN[C@@H](Cc1ccccc1)C(=O)N[C@@H](CCCCN)C(=O)N1CCC[C@H]1C(=O)N[C@H](CC1CCCCC1)C(=O)N[C@@H](CC1CCCCC1)C(=O)NCCCCCN [Example 30] (H-[NMeF]KP[dCha][Cha]-{NH(CH2)5NH2})	C5a Receptor (Homo sapiens, UniProt P21730)	2.2
C[C@@H](CC(=O)N[C@@H](CCCCN)C(=O)N1CCC[C@H]1C(=O)N[C@H](CC1CCCCC1)C(=O)N[C@@H](CC1CCCCC1)C(=O)N[C@H](CCCNC(=N)N)C(=O)O)c1ccccc1 [Example 57] ({Butanoyl(3S-Ph)}-KP[dCha][Cha][dR]-OH)	C5a Receptor (Homo sapiens, UniProt P21730)	0.027
CN[C@@H](Cc1ccccc1)C(=O)N[C@@H](CCCCN)C(=O)N1CCC[C@H]1C(=O)N[C@H](CC1CCCCC1)C(=O)N1CCN(Cc2ccccc2)CC1	C5a Receptor (Homo sapiens, UniProt P21730)	110
N=C(N)NCCC[C@@H](NC(=O)[C@H](Cc1ccccc1)NC(=O)[C@@H](CC1CCCCC1)NC(=O)[C@@H]1CCCN1C(=O)[C@H](CCCCN)NC(=O)C(CO)c1ccccc1)C(=O)O (some centres unmarked) [Example 8] (X7-KP[dCha]F[dR]-OH)	C5a Receptor (Homo sapiens, UniProt P21730)	6.2
CN[C@@H](Cc1ccccc1)C(=O)N[C@@H](CCCCN)C(=O)N1CCC[C@H]1C(=O)N[C@H](CC1CCCCC1)C(=O)N[C@@H](CC1CCCCC1)C(=O)NCc1cccc([N+](=O)[O-])c1 [Example 114] (H-[NMeF]KP[dCha][Cha]-X11)	C5a Receptor (Homo sapiens, UniProt P21730)	0.13
CN[C@@H](Cc1ccccc1)C(=O)N[C@@H](CCCCN)C(=O)N1CCC[C@H]1C(=O)N[C@H](CC1CCCCC1)C(=O)N(CCCN)CCc1ccccc1 [Example 225] (H-[NMeF]KP[dCha]-X4)	C5a Receptor (Homo sapiens, UniProt P21730)	46
CN[C@@H](Cc1ccccc1)C(=O)N[C@@H](CCCCN)C(=O)N1CCC[C@H]1C(=O)N[C@H](CC1CCCCC1)C(=O)N[C@@H](CC1CCCCC1)C(=O)NCCCNC(=N)N [Example 55] (H-[NMeF]KP[dCha][Cha]-X3)	C5a Receptor (Homo sapiens, UniProt P21730)	0.007
